Task for the reader: assign each of the following molecules its reported Ki.
target: UniProtKB P08172; test: Muscarinic binding activity (3H-QNB displacement), m2; conditions: membranes of transfected CHO cells, read-out: Ki m2
Sequence (P08172 whole entry): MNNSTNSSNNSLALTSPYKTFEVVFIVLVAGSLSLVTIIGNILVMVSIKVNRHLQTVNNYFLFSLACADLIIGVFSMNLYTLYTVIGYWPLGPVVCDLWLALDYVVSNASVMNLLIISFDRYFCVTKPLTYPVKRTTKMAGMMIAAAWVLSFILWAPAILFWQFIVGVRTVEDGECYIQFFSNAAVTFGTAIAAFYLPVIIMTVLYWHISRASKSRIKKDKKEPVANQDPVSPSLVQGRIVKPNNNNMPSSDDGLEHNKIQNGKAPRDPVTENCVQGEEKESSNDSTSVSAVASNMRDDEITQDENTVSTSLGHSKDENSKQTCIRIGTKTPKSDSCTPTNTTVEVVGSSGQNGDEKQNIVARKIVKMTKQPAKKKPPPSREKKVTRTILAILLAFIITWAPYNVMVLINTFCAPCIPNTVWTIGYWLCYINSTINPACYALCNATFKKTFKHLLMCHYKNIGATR
Numbers only, in nM.

Solved cases below.
In [3]: df
Out[3]:
                                   molecule       test_target  endpoint_name  assay_value
0  O=[N+]([O-])c1ccc(Oc2ccc3c(c2)CCCC3N2CCN(C3CCCCC3)CC2)cc1 (centres unmarked) [Compound 6]  UniProtKB P08172             Ki           96
1  Nc1ccc(Oc2ccc3c(c2)CCCC3N2CCN(C3CCCCC3)CC2)cc1 (centres unmarked) [Compound 7]  UniProtKB P08172             Ki           26
2  c1cnc(Oc2ccc3c(c2)CCC3N2CCN(C3CCCCC3)CC2)nc1 (single isomer, unassigned) [Compound 11]  UniProtKB P08172             Ki           88
3  O=[N+]([O-])c1ccc(Oc2ccc3c(c2)OCCC3N2CCN(C3CCCCC3)CC2)cc1 (centres unmarked) [Compound 2]  UniProtKB P08172             Ki           27
4  c1cnc(Oc2ccc3c(c2)CCCC3N2CCN(C3CCCCC3)CC2)nc1 (centres unmarked) [Compound 5]  UniProtKB P08172             Ki           21

Provide reported Ki for each item, in the same order as listed.
1. O=S(=O)(c1ccccc1)c1ccc2c(c1)CCC2N1CCN(CCO)CC1 (centres unmarked) [Compound 1]
2. c1cnc(Oc2ccc3c(c2)CC(CC2CCCCC2)C3N2CCN(C3CCCCC3)CC2)nc1 (centres unmarked) [Compound 12]

1: 79; 2: 92

For c1cnc(Oc2ccc3c(c2)CCC3N2CCN(C3CCCCC3)CC2)nc1 (single isomer, unassigned) [Compound 10] , write its Ki.
11.5

---

molecular target: cloned human m4 muscarinic receptor (Homo sapiens); test: Muscarinic binding activity (3H-QNB displacement), m4; conditions: Ki m4, membranes of transfected CHO cells
Sequence (P08173 whole entry): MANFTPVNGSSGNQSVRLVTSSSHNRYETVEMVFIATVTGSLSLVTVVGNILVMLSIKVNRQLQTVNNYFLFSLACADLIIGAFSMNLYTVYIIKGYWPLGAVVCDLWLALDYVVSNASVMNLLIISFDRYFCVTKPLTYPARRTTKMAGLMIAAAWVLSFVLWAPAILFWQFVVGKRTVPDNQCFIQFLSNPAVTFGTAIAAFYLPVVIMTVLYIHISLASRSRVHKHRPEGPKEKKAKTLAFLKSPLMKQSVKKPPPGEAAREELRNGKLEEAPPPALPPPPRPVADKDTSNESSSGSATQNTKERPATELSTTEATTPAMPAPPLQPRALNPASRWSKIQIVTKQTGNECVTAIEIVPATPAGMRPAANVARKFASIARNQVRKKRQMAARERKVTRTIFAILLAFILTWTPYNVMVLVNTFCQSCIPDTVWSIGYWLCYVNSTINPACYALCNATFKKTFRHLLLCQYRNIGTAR
ENDPOINT_NAME: pKi
One number for each entry, as −log10 of the molar value.

>>> print(df.to_string())
                                   compound                               test_target  assay_value
0  COc1ccc(S(=O)(=O)c2ccc3c(c2)CCC3N2CCN(C3CCCCC3)C[C@H]2C)cc1 (single isomer, unassigned) [Compound 15]  cloned human m4 muscarinic receptor (Homo sapiens)         9.57

For COc1ccc(S(=O)(=O)c2ccc3c(c2)CCC3N2CCN(C3CCCCC3)C[C@H]2C)cc1 (single isomer, unassigned) [Compound 14] , write its pKi.
7.80
